Test system: Human alphaherpesvirus 1
Experiment: Antiviral activity against HSV1 infected in african green monkey Vero cells assessed as total inhibitory concentration after 3 days by plaque reduction assay
Assay type: functional
The source made the active and inactive calls. The calls are words filed in the database; no cut-off is given here.

molecule	Activity
COc1cc(O)c2c(=O)c(O[C@@H]3O[C@H](CO)[C@@H](O[C@@H]4O[C@H](CO)[C@@H](O)[C@H](O)[C@H]4O)[C@H](O)[C@H]3O)c(-c3ccc(O)c(O)c3)oc2c1 [NERVILIFORDIN C]	inactive
COc1cc(O)c2c(=O)c(O[C@@H]3O[C@H](CO)[C@@H](O[C@@H]4OC[C@@H](O)[C@H](O)[C@H]4O)[C@H](O)[C@H]3O)c(-c3ccc(O)cc3)oc2c1 [NERVILIFORDIN A]	inactive
O=c1cc(-c2ccc(O)cc2)oc2c([C@@H]3O[C@H](CO)[C@@H](O)[C@H](O)[C@H]3O)c(O)c([C@@H]3O[C@H](CO)[C@@H](O)[C@H](O)[C@H]3O)c(O)c12	inactive
O=c1ccc2cc(O)c(O)cc2o1 [ESCULETIN]	0.14 mM
COc1cc(O)c2c(=O)c(O)c(-c3ccc(O)c(O)c3)oc2c1 [RHAMNETIN]	inactive
COc1cc(O)c2c(=O)c(O[C@@H]3O[C@H](CO)[C@@H](O[C@@H]4O[C@H](CO)[C@@H](O)[C@H](O)[C@H]4O)[C@H](O)[C@H]3O)c(-c3ccc(O)cc3)oc2c1 [NERVILIFORDIN B]	inactive

* * *

Test system: Human alphaherpesvirus 1
Experiment: Antiviral activity against HSV1 infected in african green monkey Vero cells assessed as total inhibitory concentration after 3 days by plaque reduction assay
Assay type: functional
Calls of active or inactive are those of the source. The calls are words filed in the database; no cut-off is given here.
measured-quantity: Activity

compound	measured-quantity	result
COc1cc(O)c2c(=O)c(O)c(-c3ccc(O)cc3)oc2c1	Activity	inactive
COc1cc(O)c2c(=O)c(O[C@@H]3O[C@H](CO)[C@@H](O)[C@H](O)[C@H]3O)c(-c3ccc(O)c(OC)c3)oc2c1	Activity	inactive
COc1cc(O)c2c(=O)c(O)c(-c3ccc(O)c(OC)c3)oc2c1	Activity	inactive
COc1cc(O)c2c(=O)c(O[C@@H]3O[C@H](CO)[C@@H](O)[C@H](O)[C@H]3O)c(-c3ccc(O[C@@H]4O[C@H](CO)[C@@H](O)[C@H](O)[C@H]4O)cc3)oc2c1 [COMPLANATUSIDE]	Activity	inactive

* * *

Assay: Cytotoxicity against african green monkey Vero cells after 3 days by MTT assay
Format: cell-based
Conditions: chlorocebus sabaeus, read-out: MNCC
Attribute: MNTC at 72 h

compound	MNTC at 72 h [µM]
COc1cc(O)c2c(=O)c(O)c(-c3ccc(O)cc3)oc2c1 [RHAMNOCITRIN]	80
O=c1cc(-c2ccc(O)cc2)oc2c([C@@H]3O[C@H](CO)[C@@H](O)[C@H](O)[C@H]3O)c(O)c([C@@H]3O[C@H](CO)[C@@H](O)[C@H](O)[C@H]3O)c(O)c12	170
COc1cc(O)c2c(=O)c(O)c(-c3ccc(O)c(OC)c3)oc2c1 [RHAMNAZIN]	40
COc1cc(O)c2c(=O)c(O[C@@H]3O[C@H](CO)[C@@H](O)[C@H](O)[C@H]3O)c(-c3ccc(O[C@@H]4O[C@H](CO)[C@@H](O)[C@H](O)[C@H]4O)cc3)oc2c1 [COMPLANATUSIDE]	320

* * *

Experiment: Cytotoxicity against african green monkey Vero cells after 3 days by MTT assay
Assay type: cell-based
Details: chlorocebus sabaeus, read-out: MNCC
measured-quantity: log10(MNTC at 72 h) (log10 of the value in µM)

smiles-string	measured-quantity	numeric-result
COc1cc(O)c2c(=O)c(O[C@@H]3O[C@H](CO)[C@@H](O[C@@H]4O[C@H](CO)[C@@H](O)[C@H](O)[C@H]4O)[C@H](O)[C@H]3O)c(-c3ccc(O)cc3)oc2c1	log10(MNTC at 72 h)	2.20
COc1cc(O)c2c(=O)c(O[C@@H]3O[C@H](CO)[C@@H](O[C@@H]4OC[C@@H](O)[C@H](O)[C@H]4O)[C@H](O)[C@H]3O)c(-c3ccc(O)cc3)oc2c1	log10(MNTC at 72 h)	2.23
COc1cc(O)c2c(=O)c(O[C@@H]3O[C@H](CO)[C@@H](O)[C@H](O)[C@H]3O)c(-c3ccc(O)c(OC)c3)oc2c1	log10(MNTC at 72 h)	2.30
O=c1ccc2cc(O)c(O)cc2o1	log10(MNTC at 72 h)	2.15
Nc1nc2c(ncn2COCCO)c(=O)[nH]1	log10(MNTC at 72 h)	3.05
COc1cc(O)c2c(=O)c(O[C@@H]3O[C@H](CO)[C@@H](O[C@@H]4O[C@H](CO)[C@@H](O)[C@H](O)[C@H]4O)[C@H](O)[C@H]3O)c(-c3ccc(O)c(O)c3)oc2c1	log10(MNTC at 72 h)	2.20
COc1cc(O)c2c(=O)c(O)c(-c3ccc(O)c(O)c3)oc2c1	log10(MNTC at 72 h)	1.90
